Assignment: determine reported IC50 for the given compounds.
test system: PC-3; assay: In vitro cytotoxicity, MTT assay, PC-3; format: cell-based; details: Homo sapiens, PC-3 cells, 72 h, average of two separate determinations
Answer in µM, number only, no unit symbol.

IC50 measured on COc1ccc2nc(C)c(NC(=O)NS(=O)(=O)c3ccc(F)cc3)c(Nc3ccc(Br)cc3)c2c1 [23c] = 39.8

IC50 measured on Cc1ccc(S(=O)(=O)NC(=O)Nc2cnc3ccc(Br)cc3c2Nc2ccc(F)c(Cl)c2)cc1 [22c] = 16.7

IC50 measured on CC(C)(C)c1ccc(S(=O)(=O)NC(=O)Nc2cnc3ccc(Br)cc3c2Nc2ccc(C(C)(C)C#N)cc2)cc1 [19d] = 68.2

IC50 measured on CC(C)(C)c1ccc(S(=O)(=O)NC(=O)Nc2cnc3ccc(Br)cc3c2Nc2ccc(F)c(Cl)c2)cc1 [22d] = 29.3

IC50 measured on CC(C)(C#N)c1ccc(Nc2c(NC(=O)NS(=O)(=O)c3ccc(Cl)cc3)cnc3ccc(Br)cc23)cc1 [19b] = 34.3

IC50 measured on COc1ccc2nc(C)c(NC(=O)NS(=O)(=O)c3ccc(F)cc3)c(Nc3ccc(F)c(Cl)c3)c2c1 [23d] = 57.9

IC50 measured on Cn1c(=O)n(-c2ccc(C(C)(C)C#N)cc2)c2c3cc(-c4cnc5ccccc5c4)ccc3ncc21 [NVP-BEZ235, reference compound] = 0.2

---

RECORDED ENDPOINT: melting point

melting point measured on O=C(Nc1cnc2ccc(Br)cc2c1Nc1ccc(Br)cc1)NS(=O)(=O)c1ccc(Cl)cc1 [21b] = 284.1 to 285.4 °C

melting point measured on Cc1ccc(S(=O)(=O)NC(=O)Nc2cnc3ccc(Br)cc3c2Nc2ccc(C(C)(C)C#N)cc2)cc1 [19c] = 289.2 to 290.4 °C

melting point measured on COc1ccc(Nc2c(NC(=O)NS(=O)(=O)c3ccc(F)cc3)cnc3ccc(Br)cc23)cc1 [20a] = 289.1 to 290.2 °C

melting point measured on COc1ccc(Nc2c(NC(=O)NS(=O)(=O)c3ccc(C(C)(C)C)cc3)c(C)nc3ccc(OC)cc23)cc1 [23b] = 291.2 to 292.7 °C

melting point measured on CC(C)(C)c1ccc(S(=O)(=O)NC(=O)Nc2cnc3ccc(Br)cc3c2Nc2ccc(F)c(Cl)c2)cc1 [22d] = 290.1 to 291.6 °C
